Tested on: K562 CRISPRi cells
measurement notes: Constant region variant library pooled growth screen, K562
Format: cell-based, human
settings: sgRNA constant region variants; activity relative to the original, un-modified constant region cr995
readout: Mean relative activity
Returns: the value as a bare number; no unit string appended.

What the record says about cr487 (nucleic acid, listed as DNA, chemistry not fully specified) guide: GTTTAAGAGCTAAGCTGGAAACAGCATAGCACGTTTAAATAAGGCTAGTCCGTTATCAACTTGAAAAAGTGGCACCGAGTCGGTGCT : Mean relative activity is 1.039

Note to self: Mean relative activity recorded for cr300 (nucleic acid, listed as DNA, chemistry not fully specified) guide: GTTTAAGAGCTAAGCTGGAAACAGCATAGCAAGTTTAAATAAGGATATTCCGTTATCAACTTGAAAAAGTGATACCGAGTCGGTATT was 0.592

Record summary for cr012 (nucleic acid, listed as DNA, chemistry not fully specified) guide: GTTGAAGAGCTAAGCTGGAAACAGCATAGCAAGTTTAAATAAGGCTAGTCCGTTATCAACTTGAAAAAGTGGCACCGAGTCGGTGCT : reported Mean relative activity = 0.02769

In plain terms, cr827 (nucleic acid, listed as DNA, chemistry not fully specified) guide: GTTTAAGAGCTAAGCTGGAAACAGCATAGCAAGTTTAAATAAGGATATTCCGTTATCAACTTGAAAAAGTGGCTACGAGTCGTAGCT has a documented Mean relative activity of 0.5792
